- MEASURED_TARGET: UniProt:P51449
- Sequence (P51449 1-497 isoform P51449-2): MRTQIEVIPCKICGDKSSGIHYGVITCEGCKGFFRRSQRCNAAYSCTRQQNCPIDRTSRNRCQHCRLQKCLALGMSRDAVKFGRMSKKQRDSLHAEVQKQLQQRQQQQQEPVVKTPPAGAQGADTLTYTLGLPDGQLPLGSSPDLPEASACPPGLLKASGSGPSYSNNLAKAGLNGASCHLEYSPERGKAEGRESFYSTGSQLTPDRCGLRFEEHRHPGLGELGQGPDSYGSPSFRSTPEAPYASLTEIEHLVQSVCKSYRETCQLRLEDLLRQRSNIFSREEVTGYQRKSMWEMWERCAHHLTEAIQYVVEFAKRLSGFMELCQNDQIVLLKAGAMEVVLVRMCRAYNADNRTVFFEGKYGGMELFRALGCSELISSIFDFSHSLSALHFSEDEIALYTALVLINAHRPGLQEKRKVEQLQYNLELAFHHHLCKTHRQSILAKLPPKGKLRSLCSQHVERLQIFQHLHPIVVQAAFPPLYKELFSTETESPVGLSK
- MEASUREMENT_DESCRIPTION: RORE Luciferase/RORγt transactivation assay
- Format: cell-based
- Parameters: the full-length cDNA of human RORγt; V5-His (encoded by the vector); expressed in transfected cells; host or cells: COS-7 (monkey kidney)
- ASSAY_CONDITIONS: COS-7 cells transfected with human IL-17 promoter luciferase reporter and RORγt plasmid, 20 h; read-out: IC50, RORγt activity inhibition (luciferase reporter)
pIC50: −log10 of the molar value.
PROPERTY: pIC50

Known results for compounds:
[
  {
    "COMPOUND": "Cc1ccc(C(NC(=O)Cc2cc(N3CCNCC3)ccc2F)c2ccccc2)c(N2CCCCC2)c1 (stereo not shown)",
    "MEASURED_TARGET": "UniProt:P51449",
    "pIC50": "< 5.00"
  },
  {
    "COMPOUND": "Cc1ccc(C(NC(=O)Cc2cccc(N3CCC(S(C)(=O)=O)CC3)c2)c2ccc(C)o2)c(N2CCCCC2)c1 (stereo not shown)",
    "MEASURED_TARGET": "UniProt:P51449",
    "pIC50": "> 7.00"
  },
  {
    "COMPOUND": "Cc1ccc(C(NC(=O)Cc2cc(N3CCNCC3)ccc2C)c2ccc(C)o2)c(N2CCCCC2)c1 (stereo not shown)",
    "MEASURED_TARGET": "UniProt:P51449",
    "pIC50": "5.00 to 6.00"
  },
  {
    "COMPOUND": "Cc1ccc(C(NC(=O)Cc2cccc(N3CCN(C)CC3)c2)c2ccc(C)o2)c(N2CCCCC2)c1 (stereo not shown)",
    "MEASURED_TARGET": "UniProt:P51449",
    "pIC50": "6.00 to 7.00"
  }
]

Request: Entry under review: CC(=O)N1CCN(c2ccc(CC(=O)NC(c3ccccc3)c3ccccc3N3CCCCC3)cc2)CC1 (stereo not shown) . Reported pIC50?
Result: 6.00 to 7.00

Request: Entry under review: CC(=O)N1CCN(c2ccc(F)c(CC(=O)NC(c3ccc(C)o3)c3ccc(C)cc3C)c2)CC1 (stereo not shown) . Reported pIC50?
Result: 6.00 to 7.00

Request: Entry under review: Cc1ccc(C(NC(=O)Cc2cc(N3CCN(C(=O)OC(C)(C)C)CC3)ccc2F)c2ccccc2)c(N2CCCCC2)c1 (stereo not shown) . Reported pIC50?
Result: 6.00 to 7.00

---

- MEASURED_TARGET: UniProt P51449
- MEASUREMENT_DESCRIPTION: IL-17 secretion from EL4 murine lymphoma cells overexpressing human RORγt
- Format: cell-based
- ASSAY_CONDITIONS: human RORγt-transfected EL4 cells, PMA and ionomycin stimulation; read-out: IC50, inhibition of IL-17 secretion
PROPERTY: IC50

[
  {
    "MOLECULE": "Cc1ccc(C(NC(=O)Cc2ccc(N3CCC(S(C)(=O)=O)CC3)cc2)c2ccc(C)o2)c(N2CCCCC2)c1 (stereo not drawn) [Cpd.18]",
    "RESULT": "0.1 to 1 µM"
  }
]

// next entry
Request: Short answer please: IC50, UniProt P51449, entry CC(=O)C1CCN(c2ccc(CC(=O)NC(c3ccc(C)o3)c3ccc(C)cc3N3CCCCC3)cc2)CC1 (stereo not drawn) [Cpd.19]
Result: 0.1 to 1 µM

---

We begin with a simple list: items and their reported pIC50.
- MEASURED_TARGET: human RORγt (Homo sapiens, UniProt P51449)
- MEASUREMENT_DESCRIPTION: IL-17 secretion from EL4 murine lymphoma cells overexpressing human RORγt
- Format: cell-based
- ASSAY_CONDITIONS: human RORγt-transfected EL4 cells, PMA and ionomycin stimulation; read-out: IC50, inhibition of IL-17 secretion
pIC50: −log10 of the molar value.

[
  {
    "COMPOUND": "COc1ccc(C(NC(=O)Cc2cc(N3CCN(C(C)=O)CC3)ccc2F)c2ccc(C)o2)c(N2CCCCCC2)c1 (stereo not shown)",
    "pIC50": "6.00 to 7.00"
  },
  {
    "COMPOUND": "COc1ccc(C(NC(=O)Cc2cc(N3CCN(C(C)=O)CC3)ccc2F)c2ccccc2)c(N2CCCCCC2)c1 (stereo not shown)",
    "pIC50": "6.00 to 7.00"
  },
  {
    "COMPOUND": "COc1ccc(C(NC(=O)Cc2cc(N3CCN(C(C)=O)CC3)ccc2C)c2ccc(C)o2)c(N2CCCCCC2)c1 (stereo not shown)",
    "pIC50": "6.00 to 7.00"
  }
]

// next entry
Request: Entry under review: CC(=O)N1CCN(c2ccc(F)c(CC(=O)NC(c3ccc(C)o3)c3ccc(C)cc3C)c2)CC1 (stereo not shown) . Reported pIC50?
Result: 5.00 to 6.00
